Sourced from patent US8778923B2

Provide the reported EC50 of each item.
# target.under.test: GLP-1R (Homo sapiens, UniProt P43220)
# Sequence (P43220 24-463): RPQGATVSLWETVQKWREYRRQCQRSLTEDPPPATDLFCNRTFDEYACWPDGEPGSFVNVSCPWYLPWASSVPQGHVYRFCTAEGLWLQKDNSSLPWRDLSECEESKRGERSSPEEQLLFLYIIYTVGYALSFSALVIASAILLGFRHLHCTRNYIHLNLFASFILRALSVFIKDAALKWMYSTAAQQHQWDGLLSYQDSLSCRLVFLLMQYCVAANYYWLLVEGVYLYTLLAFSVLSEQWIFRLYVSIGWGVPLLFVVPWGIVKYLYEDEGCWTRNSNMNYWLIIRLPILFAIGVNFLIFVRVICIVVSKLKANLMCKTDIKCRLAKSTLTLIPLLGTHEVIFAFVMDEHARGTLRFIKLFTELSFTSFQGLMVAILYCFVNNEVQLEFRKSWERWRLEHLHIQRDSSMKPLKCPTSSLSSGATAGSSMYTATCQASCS
# Sequence (P01275 100-127 partner limits assumed): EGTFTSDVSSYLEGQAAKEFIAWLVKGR
# protocol.text: EC20 GLP-1(9-36) PAM cAMP assay: dose response of compound in the presence of fixed concentration of GLP-1(9-36)
# condition.label: GLP-1R CRE-bla CHO-K1 cells, compound dose response in presence of fixed concentration of GLP-1(9-36)

Query: Entry under review: COc1ccc(-c2cnc(-c3ccc(C[C@H](NC(=O)c4ccc(C(C)(C)C)cc4)C(=O)O)cc3)nc2)cc1OC . Reported EC50?
Result: 2500 to 5000 nM

Query: Entry under review: Cc1ccc(-c2cnc(-c3ccc(C[C@H](NC(=O)c4ccc(C(C)(C)C)cc4)C(=O)O)cc3)nc2)cc1C . Reported EC50?
Result: 2500 to 5000 nM

Query: Entry under review: CCCCCCCCCCCCCCOc1ccc(-c2cnc(-c3ccc(C[C@H](NC(=O)c4ccc(C(C)(C)C)s4)C(=O)O)cc3)nc2)cc1 . Reported EC50?
Result: 5000 to 10000 nM

Query: Entry under review: CC(C)(C)c1ccc(C(=O)N[C@@H](Cc2ccc(-c3noc(-c4ccc(-c5ccc(C#N)cc5)cc4)n3)cc2)C(=O)O)cc1 . Reported EC50?
Result: 800 to 2500 nM

Query: Entry under review: CSc1ccc(-c2nc(-c3ccc(C[C@H](NC(=O)c4ccc(C(C)(C)C)cc4)C(=O)O)cc3)no2)cc1 . Reported EC50?
Result: 2500 to 5000 nM

Query: Entry under review: CCCCCCCOc1ccc(-c2cnc(-c3ccc(C[C@H](NC(=O)c4ccc(C(N)=O)cc4)C(=O)O)cc3)nc2)cc1 . Reported EC50?
Result: 800 to 2500 nM

Query: Entry under review: CC(C)Oc1ccc(-c2cnc(-c3ccc(C[C@H](NC(=O)c4ccc(C(C)(C)C)s4)C(=O)O)cc3)nc2)cc1 . Reported EC50?
Result: 800 to 2500 nM

Query: Entry under review: CCCCCCCOc1ccc(-c2cnc(-c3ccc(C[C@H](NC(=O)Cc4cc5ccccc5s4)C(=O)O)cc3)nc2)cc1 . Reported EC50?
Result: 800 to 2500 nM

Query: Entry under review: CCCCCCCOc1ccc(-c2nc(-c3ccc(CC[C@H](NC(=O)c4ccc(C(C)(C)C)cc4)C(=O)O)cc3)no2)cc1 . Reported EC50?
Result: 800 to 2500 nM

Query: Entry under review: CCCCCCCOc1ccc(-c2cnc(-c3ccc(C[C@H](NC(=O)c4ccc(C(C)(C)C)s4)C(=O)NCC(=O)O)cc3)cn2)cc1 . Reported EC50?
Result: 800 to 2500 nM

Query: Entry under review: CC(C)Oc1ccc(-c2cnc(-c3ccc(C[C@H](NC(=O)c4ccc(C(C)(C)C)cc4)C(=O)O)cc3)nc2)cc1 . Reported EC50?
Result: 2500 to 5000 nM

Query: Entry under review: CCCCCCCOc1ccc(-c2cnc(-c3ccc(C[C@H](NC(=O)c4ccc(CC)cc4)C(=O)O)cc3)nc2)cc1 . Reported EC50?
Result: 800 to 2500 nM

Query: Entry under review: CCCCCCCOc1ccc(-c2nc(-c3ccc(C[C@H](NC(=O)c4ccc(C(C)(C)C)cc4)C(=O)O)cc3)no2)cc1 . Reported EC50?
Result: 2500 to 5000 nM
